Hey, just so you know, these numbers are from patent US20220204539A1.

Molecular target: Cell surface CD73 of U87 MG human glioblastoma cells (Homo sapiens, UniProt P21589)
Construct: Cell surface CD73 catalyzes the conversion of adenosine monophosphate (AMP) to adenosine and inorganic phosphate; endogenous in cells
Sequence (P21589 27-549): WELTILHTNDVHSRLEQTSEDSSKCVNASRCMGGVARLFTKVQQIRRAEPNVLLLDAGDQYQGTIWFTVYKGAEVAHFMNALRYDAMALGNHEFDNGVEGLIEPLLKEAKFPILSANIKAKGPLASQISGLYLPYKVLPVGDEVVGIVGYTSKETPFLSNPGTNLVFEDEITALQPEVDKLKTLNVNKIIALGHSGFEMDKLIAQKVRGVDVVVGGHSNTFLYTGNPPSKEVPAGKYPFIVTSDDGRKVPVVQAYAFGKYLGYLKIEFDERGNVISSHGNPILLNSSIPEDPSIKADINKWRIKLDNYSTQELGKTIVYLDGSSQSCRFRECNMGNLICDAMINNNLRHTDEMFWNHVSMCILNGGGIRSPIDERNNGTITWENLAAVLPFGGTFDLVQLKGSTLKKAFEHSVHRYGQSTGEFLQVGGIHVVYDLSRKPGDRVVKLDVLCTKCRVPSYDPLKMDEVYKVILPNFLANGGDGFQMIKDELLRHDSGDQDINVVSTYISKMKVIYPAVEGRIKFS
Test: CD73 Cellular Assay
Conditions: 5000 cells per well, 30 μM AMP substrate, read-out: Potency (IC50, CD73 cellular assay)
Give IC50 for every item shown.

Name the reported IC50 value associated with the compound O=P(O)(O)CP(=O)(O)OC[C@H]1O[C@@H](c2cnc3c(N4CCCC[C@H]4c4ccccc4)nc(Cl)nn23)[C@H](O)[C@@H]1O
< 1 nM

Would you mind doing N#Cc1nc(NC2CCCC2)c2ncc([C@@H]3O[C@H](COP(=O)(O)CP(=O)(O)O)[C@@H](O)[C@H]3O)n2n1 as well?
< 1 nM

Would you mind doing C[C@H](Nc1nc(Cl)nn2c([C@@H]3O[C@H](COP(=O)(O)CP(=O)(O)O)[C@@H](O)[C@H]3O)cnc12)c1ccc(F)c(F)c1 as well?
< 1 nM

Would you mind doing O=P(O)(O)CP(=O)(O)OC[C@H]1O[C@@H](c2cnc3c(N4CCCC4)nc(Cl)nn23)[C@H](O)[C@@H]1O as well?
< 1 nM

Would you mind doing C[C@H](Nc1nc(Cl)nn2c([C@@H]3O[C@H](COP(=O)(O)CP(=O)(O)O)[C@@H](O)[C@H]3O)cnc12)c1ccccc1F as well?
< 1 nM

Would you mind doing O=P(O)(O)CP(=O)(O)OC[C@H]1O[C@@H](c2cnc3c(NC4CCCCC4)nc(Cl)nn23)[C@H](O)[C@@H]1O as well?
< 1 nM

Would you mind doing O=P(O)(O)CP(=O)(O)OC[C@H]1O[C@@H](c2cnc3c(N4CCC(F)(F)C4)nc(Cl)nn23)[C@@H](F)[C@@H]1O as well?
1 to 9.9 nM

Would you mind doing O=P(O)(O)CP(=O)(O)OC[C@H]1O[C@@H](c2cnc3c(NC4CCC(F)(F)C4)nc(Cl)nn23)[C@H](O)[C@@H]1O (stereo partly shown) as well?
< 1 nM

Would you mind doing CO[C@H]1CC[C@@H](Nc2nc(Cl)nn3c([C@@H]4O[C@H](COP(=O)(O)CP(=O)(O)O)[C@@H](O)[C@H]4O)cnc23)CC1 as well?
< 1 nM

Would you mind doing O=P(O)(O)CP(=O)(O)OC[C@H]1O[C@@H](c2ccc3c(NCc4ccccc4)ncnn23)[C@H](O)[C@@H]1O as well?
1 to 9.9 nM

Would you mind doing O=P(O)(O)CP(=O)(O)OC[C@H]1O[C@@H](c2cnc3c(NCc4ccccc4)nc(Cl)nn23)[C@H](O)[C@@H]1O as well?
< 1 nM

Would you mind doing O=P(O)(O)CP(=O)(O)OC[C@H]1O[C@@H](c2cnc3c(N[C@H]4CCOC4)nc(Cl)nn23)[C@H](O)[C@@H]1O as well?
< 1 nM

Would you mind doing O=P(O)(O)CP(=O)(O)OC[C@H]1O[C@@H](c2cnc3c(NC4CCCC4)ncnn23)[C@H](O)[C@@H]1O as well?
< 1 nM

* * *

Target: Recombinant Human 5′-Nucleotidase (CD73) (Homo sapiens, UniProt P21589)
Construct: CHO derived CD73 (Trp27-Lys547), with a C-terminal 6-His tag; 6-His (C); purchased R&D 5795-EN; host or cells: CHO
Assay: CD73 Enzyme Assay
Assay type: biochemical
Details: human CD73 0.5 nM, AMP 30 μM, PiColorLock phosphate detection; read-out: Potency (IC50, CD73 enzyme assay)
Give IC50 for every item shown.

Name the reported IC50 value associated with the compound C[C@H](Nc1nc(Cl)nn2c([C@@H]3O[C@H](COP(=O)(O)CP(=O)(O)O)[C@@H](O)[C@H]3O)cnc12)c1cncc(F)c1
< 10 nM

Would you mind doing O=P(O)(O)CP(=O)(O)OC[C@H]1O[C@@H](c2cnc3c(NC4CCOCC4)nc(Cl)nn23)[C@H](O)[C@@H]1O as well?
< 10 nM

Would you mind doing O=P(O)(O)CP(=O)(O)OC[C@H]1O[C@@H](c2cnc3c(NCC4CCCC(O)C4)nc(Cl)nn23)[C@H](O)[C@@H]1O (stereo partly shown) as well?
< 10 nM

Would you mind doing O=P(O)(O)CP(=O)(O)OC[C@H]1O[C@@H](c2cnc3c(N4CCCCC4)nc(Cl)nn23)[C@H](O)[C@@H]1O as well?
< 10 nM

Would you mind doing O=P(O)(O)CP(=O)(O)OC[C@H]1O[C@@H](c2cnc3c(NCc4ccccc4)nc(Cl)nn23)[C@H](O)[C@@H]1O as well?
< 10 nM

Would you mind doing O=P(O)(O)CP(=O)(O)OC[C@H]1O[C@@H](c2cnc3c(N4CCCC[C@H]4c4ccccc4)nc(Cl)nn23)[C@H](O)[C@@H]1O as well?
< 10 nM

Would you mind doing O=P(O)(O)CP(=O)(O)OC[C@H]1O[C@@H](c2cnc3c(N4CC5CC5C4)nc(Cl)nn23)[C@H](O)[C@@H]1O (stereo partly shown) as well?
< 10 nM

Would you mind doing O=P(O)(O)CP(=O)(O)OC[C@H]1O[C@@H](c2cnc3c(N4CC5CCCC5C4)nc(Cl)nn23)[C@@H](F)[C@@H]1O (stereo partly shown) as well?
< 10 nM

Would you mind doing O=P(O)(O)CP(=O)(O)OC[C@H]1O[C@@H](c2cnc3c(N[C@H]4CCc5ccccc54)nc(Cl)nn23)[C@H](O)[C@@H]1O as well?
< 10 nM

Would you mind doing O=P(O)(O)CP(=O)(O)OC[C@H]1O[C@@H](c2cnc3c(NC4CCCC4)nc(Cl)nn23)[C@H](O)[C@@H]1O as well?
< 10 nM

Would you mind doing COCCOCCOP(=O)(CP(=O)(O)O)OC[C@H]1O[C@@H](c2cnc3c(NC4CCCC4)nc(Cl)nn23)[C@H](O)[C@@H]1O (stereo partly shown) as well?
10 to 99 nM

Would you mind doing O=P(O)(O)CP(=O)(O)OC[C@H]1O[C@@H](c2cnc3c(N4CCC(F)(F)C4)nc(Cl)nn23)[C@H](O)[C@@H]1O as well?
< 10 nM

Would you mind doing O=P(O)(O)CP(=O)(O)OC[C@H]1O[C@@H](c2cnc3c(N4CCOCC4)nc(Cl)nn23)[C@H](O)[C@@H]1O as well?
< 10 nM

Would you mind doing CC(C)[C@@H]1CCCN1c1nc(Cl)nn2c([C@@H]3O[C@H](COP(=O)(O)CP(=O)(O)O)[C@@H](O)[C@H]3O)cnc12 as well?
< 10 nM

Would you mind doing C[C@H](Nc1nc(Cl)nn2c([C@@H]3O[C@H](COP(=O)(O)CP(=O)(O)O)[C@@H](O)[C@H]3O)cnc12)c1ccc(F)c(F)c1 as well?
< 10 nM

Would you mind doing O=P(O)(O)CP(=O)(O)OC[C@H]1O[C@@H](c2coc3c(NCc4ccccc4)nc(Cl)nc23)[C@H](O)[C@@H]1O as well?
< 10 nM

Would you mind doing COP(=O)(CP1(=O)OCC[C@@H](c2cccc(Cl)c2)O1)OC[C@H]1O[C@@H](c2cnc3c(NC4CCCC4)nc(Cl)nn23)[C@H](O)[C@@H]1O (stereo partly shown) as well?
> 1000 nM

Would you mind doing O=P(O)(O)CP(=O)(O)OC[C@H]1O[C@@H](c2cnc3c(OC4CCCC4)ncnn23)[C@H](O)[C@@H]1O as well?
100 to 999 nM

Would you mind doing O=P(O)(O)CP(=O)(O)OC[C@H]1O[C@@H](c2cnc3c(NCC4CCCO4)nc(Cl)nn23)[C@H](O)[C@@H]1O (stereo partly shown) as well?
10 to 99 nM

Would you mind doing O=P(O)(O)CP(=O)(O)OC[C@H]1O[C@@H](c2cnc3c(NC4CCCC4)nc(C4CC4)nn23)[C@H](O)[C@@H]1O as well?
100 to 999 nM

Would you mind doing C[C@H](Nc1nc(Cl)nn2c([C@@H]3O[C@H](COP(=O)(O)CP(=O)(O)O)[C@@H](O)[C@H]3O)cnc12)c1cccc(F)c1 as well?
< 10 nM

Would you mind doing O=P(O)(O)CP(=O)(O)OC[C@H]1O[C@@H](c2cnc3c(N4CCC[C@H]4c4ccccc4F)nc(Cl)nn23)[C@H](O)[C@@H]1O as well?
< 10 nM

Would you mind doing O=P(O)(O)CP(=O)(O)OC[C@H]1O[C@@H](c2cnc3c(N[C@@H]4CCOC4)nc(Cl)nn23)[C@H](O)[C@@H]1O as well?
< 10 nM

Would you mind doing O=P(O)(O)CP(=O)(O)OC[C@H]1O[C@@H](c2cnc3c(N4CCCC45CCCC5)nc(Cl)nn23)[C@H](O)[C@@H]1O as well?
< 10 nM

Would you mind doing O=P(O)(O)CP(=O)(O)OC[C@H]1O[C@@H](c2cnc3c(N4Cc5ccccc5C4)nc(Cl)nn23)[C@H](O)[C@@H]1O as well?
< 10 nM
